PROCEDURE SUMMARY: NCI Yeast Anticancer Drug Screen. Data for the cln2 rad14 strain (AID 165);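 note: 0% = growth equal to vehicle treated cultures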
RECORDED CONDITIONS: S. cerevisiae cln2 rad14 strain, at 5.0 µM (retest, dose inferred, filed as 0.5), hits give high values
About 79,000 compounds went through this panel and 15% of them were active in at least one assay; those are over-represented in the sample as a whole. Active and inactive are the calls of the source. Cut-off read from the data, not from the text of the source: active = growth inhibition above about 70%; inactive = the rest.
READOUT NAME: growth inhibition

Query block: Given the entry `CCCCCCCCC(N)CCCCCCCC` , report its measured growth inhibition.
Result block: 96% (active)

Query block: Consider the molecule `CCCCCCCCCCCCSC1=C(N)C(=O)c2ccccc2C1=O` and give its measured growth inhibition.
Result block: -3% (inactive)

Query block: # lookup: growth inhibition of `O=C1c2cc(F)ccc2-c2c(F)cc(F)c(F)c21`
Result block: 3% (inactive)

Query block: What measured growth inhibition goes with `CC(C)(C)OC(=O)N(CCCCNC(=O)OCc1ccccc1)CCCNC(=O)OCc1ccccc1` ?
Result block: 0% (inactive)

Query block: Record request: growth inhibition value, item `CSC(=S)n1nc(-c2cccs2)c(N=Nc2ccccc2)c1C(F)(F)F`
Result block: 6% (inactive)

Query block: Would you kindly share the measured growth inhibition for `COC(=O)c1ccc(SCC(=O)c2ccc([N+](=O)[O-])o2)cc1` ?
Result block: -4% (inactive)

Query block: I have this molecule here, Nc1nc(Cl)cc(NCC2(CO)CC(CCCc3ccccc3)C2)n1 (centres undefined) , and I need its recorded growth inhibition.
Result block: 13% (inactive)

Query block: Looking for the measured growth inhibition of `Cc1[nH]c2ccccc2c1-c1ccccc1` , can you help?
Result block: -53% (inactive)

Query block: Would you mind telling me what growth inhibition value was observed for CC(=O)C1CCC2C3CC(F)C4(O)CC(O)CCC4(C)C3CCC12C (centres undefined) ?
Result block: -6% (inactive)

Query block: # get_value(readout='growth inhibition', item= `CC(C)C(=O)/C=C/c1ccc(Cl)cc1Cl` )
Result block: 12% (inactive)

Query block: # query: growth inhibition of entry `Nc1ccc2c(c1)[nH]c(=O)c1cc(Cl)c(Cl)cc12`
Result block: 63% (inactive)

Query block: Query: growth inhibition; subject: `CCCCCCCCCCCC(=O)N(CCOC(=O)c1ccco1)CCOC(=O)c1ccco1`
Result block: 29% (inactive)

Query block: What value of growth inhibition has been recorded for this entry: CC1(C)CC(=O)C2=C(C1)OC1=C(CC(C)(C)CC1=O)C2c1ccccc1[N+](=O)[O-] (centres undefined)
Result block: 23% (inactive)

Query block: Which value of growth inhibition has been reported for `c1cc[c]([Sn]([S]c2ccccn2)([c]2ccccc2)[c]2ccccc2)cc1` in the records?
Result block: 99% (active)

Query block: Can you share its growth inhibition? I mean this molecule: `C1=CC2OC1c1cc3ccccc3cc12`
Result block: 23% (inactive)

Query block: Quick one: growth inhibition for CCNCC(O)COc1ccc2c(c1)[n+]([O-])nc(N)[n+]2[O-] (centres undefined) ?
Result block: 42% (inactive)

Query block: What does the record list as growth inhibition for `C1=c2ccccc2=C2C(=C(c3ccccc3)C(c3ccccc3)=NN2c2ccccc2)S1` ?
Result block: -22% (inactive)

Query block: Need growth inhibition of `COc1cc(/C=C/c2cc[n+](C)cc2)ccc1O` , thanks.
Result block: -2% (inactive)

Query block: Value lookup for growth inhibition; key = COC(=O)C1=C(NC(=O)Nc2ccc(Cl)cc2)OC(C)(C)C1c1ccc(Cl)cc1 (centres undefined)
Result block: 80% (active)

Query block: Please look up its growth inhibition: `CCCCCCCCCCCCSCCCN`
Result block: -9% (inactive)

Query block: Recorded growth inhibition of `CCCCCCCCCCCCCCCCCC[n+]1cccc(C(=O)c2ccccc2)c1` , please.
Result block: 56% (inactive)

Query block: Form field: reported growth inhibition of `COc1ccc2c(Cc3cc(Cl)ccc3O)cncc2c1O`
Result block: 3% (inactive)

Query block: What measured growth inhibition goes with `O=C1c2ccccc2-c2cc([N+](=O)[O-])c([N+](=O)[O-])cc21` ?
Result block: -15% (inactive)

Query block: May I ask what growth inhibition has been recorded for CCOC(=O)C1CCC(=O)O1 (centres undefined) ?
Result block: -23% (inactive)

Query block: Which measured growth inhibition value corresponds to `O=C1CSC(=S)N1c1ccc(I)cc1` ?
Result block: -2% (inactive)

Query block: Give the measured growth inhibition of `c1ccc([P+](CCCCCC[P+](c2ccccc2)(c2ccccc2)c2ccccc2)(c2ccccc2)c2ccccc2)cc1` .
Result block: 36% (inactive)

Query block: Value lookup for growth inhibition; key = `CC(C)(C)C(OC(=O)Nc1ccccc1)C(C)(C)C`
Result block: 9% (inactive)

Query block: Sample CC1NC(=O)OC1(C)c1ccccc1 (centres undefined) — what was its growth inhibition?
Result block: 1% (inactive)

Query block: For `CN(C)C(=S)N1C(=S)N(c2ccccc2)C(=Nc2ccccc2)C1=Nc1ccccc1` , what is its reported growth inhibition?
Result block: -18% (inactive)

====

PROCEDURE SUMMARY: NCI Yeast Anticancer Drug Screen. Data for the mec2-1 strain (AID 157)
RECORDED CONDITIONS: S. cerevisiae mec2-1 strain, at 50.0 µM, hits give high values
The panel holds about 79,000 compounds, 15% with a hit somewhere; the sample as a whole holds those more often.
READOUT NAME: growth inhibition (%)
# number only, unit % dropped from output

Query block: What does the record list as growth inhibition for `COc1ccc(CSC(=S)Nc2ccc(Cl)c(C(F)(F)F)c2)cc1` ?
Result block: 90.2

Query block: Look up growth inhibition: `C[N+]1(C)C/C(=C\C=C\c2ccccc2)C(=O)/C(=C/C=C/c2ccccc2)C1`
Result block: 92.1

Query block: growth inhibition lookup needed for O=C(CC1C=Cc2ccccc2N1C(=O)c1ccccc1)c1ccccc1 (centres undefined) , thanks.
Result block: 76.5

Query block: Return reported growth inhibition; argument: `CC(=O)c1ccc(Cl)c(N=Cc2cc(Br)ccc2O)c1`
Result block: 70.4

====

PROCEDURE SUMMARY: NCI Yeast Anticancer Drug Screen. Data for the mec2-1 strain (AID 157)
RECORDED CONDITIONS: S. cerevisiae mec2-1 strain, at 5.0 µM (retest, dose inferred, filed as 0.5), hits give high values
About 79,000 compounds went through this panel and 15% of them were active in at least one assay; those are over-represented in the sample as a whole. Active and inactive are the calls of the source. Cut-off read from the data, not from the text of the source: active = growth inhibition above about 70%; inactive = the rest.
Please respond with reported growth inhibition for every item in the list.

Query block: growth inhibition lookup needed for `NC(N)=Nc1ccc(N=C(N)N)cc1` , thanks.
Result block: 1% (inactive)

Query block: Given `Cc1nn(C(=S)S)c(C)c1N=Nc1ccc(Br)cc1` , state its recorded growth inhibition.
Result block: 0% (inactive)

Query block: Quick one: growth inhibition of `O=C1CSC(=S)N1c1ccc(I)cc1` ?
Result block: -2% (inactive)

Query block: # input compound: N#Cc1c(-c2ccc(Cl)cc2)c2c(n(C3OC(CO)C(O)C(O)C3O)c1=S)CCCC2 (stereo unspecified) ; wanted: its growth inhibition
Result block: -2% (inactive)

Query block: Could you tell me which growth inhibition is on file for `CCCc1cc2c(cc1O)CC[C@@H]1[C@@H]2CC[C@]2(C)[C@@H](O)CC[C@@H]12` ?
Result block: -30% (inactive)

Query block: Give its growth inhibition value. Item: CN(C)CC(O)c1cc(-c2ccc(Cl)c(Cl)c2)nc2c(Cl)cc(Cl)cc12 (stereo unspecified)
Result block: -3% (inactive)

Query block: Can you share its growth inhibition? I mean this compound: `Cc1cccc2c(CC(=O)O)c[nH]c12`
Result block: 76% (active)

Query block: Tell me the measured growth inhibition of `CCc1nc(N)nc(N)c1-c1ccc(N2CCCCC2)c([N+](=O)[O-])c1` , please.
Result block: 6% (inactive)

Query block: # lookup: growth inhibition of COc1ccccc1OCC(COC(=O)Nc1ccc(C)cc1)OC(=O)Nc1ccc(C)cc1 (stereo unspecified)
Result block: -5% (inactive)

Query block: Query (compound): O=C(O)C1C(C(=O)Nc2ccc3c(c2)Cc2ccccc2-3)C2(Cl)C(Cl)=C(Cl)C1(Cl)C2(Cl)Cl (stereo unspecified) ; field requested: growth inhibition
Result block: 27% (inactive)

Query block: Recorded growth inhibition for `CC(C)(C)CC(C)(C)c1ccc(O)c(Cl)c1` , please?
Result block: -3% (inactive)

Query block: What growth inhibition value was documented for this compound, `COc1ccc(CSC(=S)Nc2ccc(Cl)c(C(F)(F)F)c2)cc1` ?
Result block: 15% (inactive)

Query block: Consider the compound `Nc1ccc2c(c1)[nH]c(=O)c1cc(Cl)c(Cl)cc12` and give its measured growth inhibition.
Result block: 27% (inactive)

Query block: Please give the measured growth inhibition for this compound: `CCCCCC(=O)NNc1ccccc1`
Result block: 1% (inactive)

Query block: Dear colleague, I am looking for the recorded growth inhibition of the following compound: `Cc1ccc(Sc2ccc(C)cc2[N+](=O)[O-])c([N+](=O)[O-])c1`
Result block: 31% (inactive)

Query block: Sample `CNc1c(C(=O)Nc2ccccc2)c(=O)n(C)c(=O)n1C` — what was its growth inhibition?
Result block: 100% (active)
